# Substrate: CNc1ncnc2c1ncn2[C@@H]1O[C@H](COP(=O)(O)O)[C@@H](O)[C@H]1O
# protocolText: purified protein
# Type: biochemical, Arabidopsis thaliana
# studyConditions: 20 mM potassium phosphate pH 7.2, 25 °C
resultType: Km (µM)
Record the value in µM, omitting the unit from your answer.

Data request: Need Km of AtMAPDA (Arabidopsis thaliana; T97A) (protein) MEWIQSLPKIELHAHLNGSIRDSTLLELARVLGEKGVIVFADVEHVIQKNDRSLVEVFKLFDLIHKLTTDHKTVTRITREVVEDFALENVVYLELRATPKRSDSIGMSKRSYMEAVIQGLRSVSEVDIDFVTASDSQKLHNAGDGIGRKKIYVRLLLSIDRRETTESAMETVKLALEMRDVGVVGIDLSGNPLVGEWSTFLPALQYAKDNDLHITLHCGEVPNPKEIQAMLDFKPHRIGHACFFKDEDWTKLKSFRIPVEICLTSNIVTKSISSIDIHHFADLYNAKHPLILCTDDFGVFSTSLSNEYALAVRSLGLSKSETFALARAAIDATFAEDEVKQQLRFIFDSASPEHV , thanks.
Data returned: 8.94
